Molecular target: recombinant guanylate cyclase reporter cell line (Rattus norvegicus, UniProt P19686+P20595)
Construct: expressed in transfected cells
Sequence (P20595 whole entry): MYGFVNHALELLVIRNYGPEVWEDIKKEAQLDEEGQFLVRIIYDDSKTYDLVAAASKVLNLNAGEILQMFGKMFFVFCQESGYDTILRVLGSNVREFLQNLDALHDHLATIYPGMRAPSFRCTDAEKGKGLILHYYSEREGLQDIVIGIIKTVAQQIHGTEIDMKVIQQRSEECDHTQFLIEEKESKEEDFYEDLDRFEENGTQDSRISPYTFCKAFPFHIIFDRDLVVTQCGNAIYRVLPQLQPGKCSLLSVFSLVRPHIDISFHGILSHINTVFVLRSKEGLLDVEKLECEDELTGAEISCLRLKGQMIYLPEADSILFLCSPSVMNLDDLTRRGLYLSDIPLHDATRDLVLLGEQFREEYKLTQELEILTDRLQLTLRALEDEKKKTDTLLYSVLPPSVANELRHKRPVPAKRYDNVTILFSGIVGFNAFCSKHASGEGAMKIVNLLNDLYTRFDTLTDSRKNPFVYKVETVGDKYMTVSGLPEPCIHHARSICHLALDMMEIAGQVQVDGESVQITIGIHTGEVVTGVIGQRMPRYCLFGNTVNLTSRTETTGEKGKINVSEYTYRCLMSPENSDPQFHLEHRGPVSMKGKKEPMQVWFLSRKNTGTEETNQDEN
Sequence (P19686 whole entry): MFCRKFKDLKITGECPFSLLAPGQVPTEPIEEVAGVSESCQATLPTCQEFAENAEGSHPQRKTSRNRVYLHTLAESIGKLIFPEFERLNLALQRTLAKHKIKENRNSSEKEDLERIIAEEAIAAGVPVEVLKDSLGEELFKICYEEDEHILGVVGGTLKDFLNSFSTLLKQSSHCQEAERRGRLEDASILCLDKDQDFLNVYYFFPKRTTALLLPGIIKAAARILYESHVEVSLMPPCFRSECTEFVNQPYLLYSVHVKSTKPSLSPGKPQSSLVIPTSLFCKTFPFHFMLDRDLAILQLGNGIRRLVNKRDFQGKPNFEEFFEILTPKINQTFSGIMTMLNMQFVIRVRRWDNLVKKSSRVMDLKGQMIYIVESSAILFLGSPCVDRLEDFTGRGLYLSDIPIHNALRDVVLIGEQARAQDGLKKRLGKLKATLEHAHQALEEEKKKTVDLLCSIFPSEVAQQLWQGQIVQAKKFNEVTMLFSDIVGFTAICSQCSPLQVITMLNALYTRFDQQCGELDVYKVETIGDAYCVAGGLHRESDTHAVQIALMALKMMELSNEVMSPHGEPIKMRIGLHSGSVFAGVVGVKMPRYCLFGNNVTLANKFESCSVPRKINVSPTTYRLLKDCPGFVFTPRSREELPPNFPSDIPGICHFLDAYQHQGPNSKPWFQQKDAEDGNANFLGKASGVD
Experiment: B-2. Action on recombinant guanylate cyclase reporter cell line
Type: cell-based
Settings: MEC = minimal effective concentration; in some cases mean values from individual determinations
Structures can show the parent of a compound that is named as a salt.
Assay metric: MEC (µM)

Example results:
- Compound: "Cc1nc2c(OCc3c(F)cccc3F)cccn2c1C(=O)NCC(C)CN (single isomer, unassigned) [Example 96, Dihydrochloride]"
  MEC [µM]: 1.00
- Compound: "Cc1nc2c(OCc3c(F)cccc3F)cc(Cl)cn2c1C(=O)NCC(C)(C)N1CCCC1"
  MEC [µM]: 1.00

A. Cc1cc(OCc2c(F)cccc2F)c2nc(C)c(C(=O)NC3CNCC3C(F)(F)F)n2c1 (mixture of isomers)
B. Cc1cc(OCc2c(F)cccc2F)c2nc(C)c(C(=O)NCCN3CCN(C(C)C)CC3)n2c1
C. Cc1cc(OCc2c(F)cccc2F)c2nc(C)c(C(=O)NCC(N)c3cccc(C(F)(F)F)c3)n2c1 (racemic)
Prompt: Please put the entries in order of rising MEC. Returns: the labels arranged in the requested order.
Response: A, B, C
(A: 0.30 µM, B: 1.00 µM, C: 3.00 µM)

* * *

Biological target: recombinant guanylate cyclase reporter cell line (Rattus norvegicus, UniProt P19686+P20595)
Construct: expressed in transfected cells
Test: B-2. Action on recombinant guanylate cyclase reporter cell line
Assay type: cell-based
Conditions: MEC = minimal effective concentration; in some cases mean values from individual determinations
Assay metric: MEC (µM)

Example results:
- Compound: "Cc1nc2c(OCc3c(F)cccc3F)cc(Cl)cn2c1C(=O)NCC1CCCCN1 (racemic) [Example 118]"
  Assay metric: "MEC"
  Endpoint value: 1.00
- Compound: "Cc1cc(OCc2c(F)ccc(F)c2F)c2nc(C)c(C(=O)NCC(C)(N)CF)n2c1 (single isomer, unassigned; enantiomer a) [Example 285]"
  Assay metric: "MEC"
  Endpoint value: 0.3
- Compound: "Cc1cc(OCc2c(F)cccc2F)c2nc(C)c(C(=O)NCC(C)(N)CCO)n2c1 (single isomer, unassigned; enantiomer a) [Example 271]"
  Assay metric: "MEC"
  Endpoint value: 0.30
- Compound: "Cc1nc2c(OCC3CCCCC3)cccn2c1C(=O)NC(CN)c1ccc(F)c(F)c1 (single isomer, unassigned) [Example 178]"
  Assay metric: "MEC"
  Endpoint value: 0.30
- Compound: "Cc1nc2c(OCc3c(F)cccc3F)cccn2c1C(=O)NCC1(N)CC1 [Example 38]"
  Assay metric: "MEC"
  Endpoint value: 0.40

A. Cc1nc2c(OCc3c(F)cccc3F)cc(Cl)cn2c1C(=O)NCC(C)(N)CC(C)C (single isomer, unassigned) [Example 227]
B. Cc1cc(OCc2c(F)cccc2F)c2nc(C)c(C(=O)NCCNC(C)C)n2c1 (racemic) [Example 135]
Prompt: Which entry has a larger number for MEC, A or B ? Kindly give the label for the entry you pick.
Response: B

a. Cc1nc2c(OCc3c(F)cccc3F)cc(Cl)cn2c1C(=O)NC(C)CN (stereo not shown) [Example 22]
b. CCCC(C)(N)CNC(=O)c1c(C)nc2c(OCc3c(F)ccc(F)c3F)cc(C)cn12 (racemic) [Example 293]
Prompt: Which entry has a larger number for MEC, a or b ? Kindly give the label for the entry you pick.
Response: a

A. Cc1cc(OCc2c(F)cccc2F)c2nc(C)c(C(=O)NCC(C)(C)NCC(F)(F)F)n2c1 [Example 94]
B. Cc1nc2c(OCc3c(F)cccc3F)cccn2c1C(=O)NC(CN)c1ccc(Cl)cc1 (single isomer, unassigned; enantiomer b) [Example 15]
Prompt: Which entry has a larger number for MEC, A or B ? Kindly give the label for the entry you pick.
Response: B
(B: 0.53 µM, A: 0.30 µM)

A. NCC(NC(=O)c1c(C2CC2)nc2c(OCc3c(F)cccc3F)cccn12)c1ccc(F)c(F)c1 (stereo not shown) [Example 54]
B. CCCC(C)(N)CNC(=O)c1c(C)nc2c(OCc3c(F)ccc(F)c3F)cc(C)cn12 (single isomer, unassigned) [Example 304]
Prompt: Which entry has a larger number for MEC, A or B ? Kindly give the label for the entry you pick.
Response: A
(A: 1.00 µM, B: 0.10 µM)

* * *

Target: recombinant guanylate cyclase reporter cell line (Rattus norvegicus, UniProt P19686+P20595)
Construct: expressed in transfected cells
Test: B-2. Action on recombinant guanylate cyclase reporter cell line
Type: cell-based
Conditions: MEC = minimal effective concentration; in some cases mean values from individual determinations
Description: B-2. Action on Recombinant Guanylate Cyclase Reporter Cell Line The cellular action of the compounds according to the invention is determined on a recombinant guanylate cyclase reporter cell line, as described in F. Wunder et al., Anal. Biochem. 339, 104-112 (2005). Representative MEC values (MEC=minimal effective concentration) for the compounds according to the invention are shown in the following table (in some cases as mean values obtained from individual determinations): […]
Assay metric: MEC (µM)

Example results:
- Compound: "COCC(C)(N)CNC(=O)c1c(C)nc2c(OCc3c(F)cccc3F)cccn12 (single isomer, unassigned) [Example 214]"
  Unit abbreviation: "µM"
  MEC: 0.30
- Compound: "COCC(C)(N)CNC(=O)c1c(C)nc2c(OCc3c(F)cccc3F)cc(C)cn12 (single isomer, unassigned) [Example 199]"
  Unit abbreviation: "µM"
  MEC: 0.30
- Compound: "CCCC(C)(N)CNC(=O)c1c(C)nc2c(OCc3c(F)cccc3F)cc(C3CC3)cn12 (single isomer, unassigned; enantiomer b)"
  Unit abbreviation: "µM"
  MEC: 0.3
- Compound: "COc1ccc(F)c(COc2cc(C)cn3c(C(=O)NCC(C)(N)CF)c(C)nc23)c1F (centres unmarked)"
  Unit abbreviation: "µM"
  MEC: 1.00
- Compound: "CCC(N)(CC)CNC(=O)c1c(C)nc2c(OCc3c(F)cccc3F)cccn12"
  Unit abbreviation: "µM"
  MEC: 0.10

1. CCCC(C)(N)CNC(=O)c1c(CC)nc2c(OCc3c(F)cccc3F)cc(C)cn12 (centres unmarked) [Example 338]
2. CCOC(=O)c1cccc(C(CN)NC(=O)c2c(C)nc3c(OCc4c(F)cccc4F)cc(C)cn23)n1 (racemic)
Prompt: Which entry has a larger number for MEC, 1 or 2 ? Kindly give the label for the entry you pick.
Response: 2

* * *

Target: recombinant guanylate cyclase reporter cell line (Rattus norvegicus, UniProt P19686+P20595)
Construct: expressed in transfected cells
Test: B-2. Action on recombinant guanylate cyclase reporter cell line
Type: cell-based
Settings: MEC = minimal effective concentration; in some cases mean values from individual determinations
Assay metric: MEC (µM)

- Compound: "Cc1nc2c(OCc3c(F)cccc3F)cccn2c1C(=O)NC(C)CN (single isomer, unassigned; enantiomer b) [Example 20]"
  Unit abbreviation: "µM"
  MEC: 1.00
- Compound: "Cc1cc(OCc2c(F)cccc2F)c2nc(C)c(C(=O)NC3(C)CCC3(C)N)n2c1 (single isomer, unassigned; enantiomer a) [Example 336]"
  Unit abbreviation: "µM"
  MEC: 0.30
- Compound: "Cc1cc(OCc2c(F)cccc2F)c2nc(C)c(C(=O)N[C@@H]3CCCC[C@H]3N)n2c1"
  Unit abbreviation: "µM"
  MEC: 3.00

I. Cc1nc2c(OCc3c(F)cccc3F)cc(Cl)cn2c1C(=O)NCC1(N)CCCC1
II. CCCC(C)(N)CNC(=O)c1c(C2CC2)nc2c(OCc3c(F)cccc3F)cc(C)cn12 (stereo not shown)
III. Cc1cc(OCc2c(F)cccc2F)c2nc(C)c(C(=O)NCC(N)c3cnn(C)c3)n2c1 (racemic)
IV. Cc1nc2c(OCc3c(F)cccc3F)cccn2c1C(=O)NC(CN)c1ccccc1 (single isomer, unassigned; enantiomer b) [Example 18]
Prompt: Please put the entries in order of rising MEC. Returns: the labels arranged in the requested order.
Response: II, IV, I, III
(II: 0.30 µM, IV: 0.55 µM, I: 1.00 µM, III: 3.00 µM)

* * *

Molecular target: recombinant guanylate cyclase reporter cell line (Rattus norvegicus, UniProt P19686+P20595)
Construct: expressed in transfected cells
Test: B-2. Action on recombinant guanylate cyclase reporter cell line
Format: cell-based
Conditions: MEC = minimal effective concentration; in some cases mean values from individual determinations
Assay metric: MEC (µM)

- Molecule: "Cc1cc(OCc2c(F)cccc2F)c2nc(C)c(C(=O)NC3CCNC(C(F)(F)F)C3)n2c1 (racemic) [Example 302]"
  Unit abbreviation: "µM"
  Endpoint value: 0.10

a. Cc1nc2c(OCC3CCCCC3)cccn2c1C(=O)NC(CN)c1ccccc1 (racemic) [Example 44]
b. Cc1nc2c(OCc3c(F)cccc3F)cc(Cl)cn2c1C(=O)NCCN1CC(N2CCCC2)C1 [Example 156]
Prompt: Which entry has a larger number for MEC, a or b ? Kindly give the label for the entry you pick.
Response: b
